# METHOD: Toxicity liver stage against HepG2, at 10uM
# Format: cell-based
# Set-up: test concentration 10 uM, cell line HepG2-A16-CD81EGFP
# PARTICULARS: human, HepG2-A16-CD81EGFP cells; read-out: INHIBITION
METRIC: cytotoxicity at 10 µM (%)

compound=Cc1cc(C)cc(N(C)S(=O)(=O)c2cc3c(c(C(=O)O)c2)OCCO3)c1 metric="cytotoxicity at 10 µM" unit_of_measurement=% measured_number=-4.02
compound="Cc1cnn(CC2CN(CCc3cccs3)CCO2)c1 (stereo unspecified)" metric="cytotoxicity at 10 µM" unit_of_measurement=% measured_number=-14.2
compound="CCC(=O)N1CCC2(COCc3c(C)nc(NCc4ccco4)nc32)C1 (stereo unspecified)" metric="cytotoxicity at 10 µM" unit_of_measurement=% measured_number=1.75
compound=O=S1(=O)N(c2ccccc2)C[C@@H](O)[C@]12CCNC2 metric="cytotoxicity at 10 µM" unit_of_measurement=% measured_number=2.63
compound=N#Cc1ccc(CN2CCCN(C(=O)CCn3cncn3)CC2)cc1 metric="cytotoxicity at 10 µM" unit_of_measurement=% measured_number=-12.7
compound=O=C(NCCN1CCOCC1)NCc1ccc(-n2cccn2)cc1 metric="cytotoxicity at 10 µM" unit_of_measurement=% measured_number=-6.4

The measurements presented in this section are drawn from ChEMBL document CHEMBL4513216.
